Assay: folding stability dG unfold from trypsin proteolysis; higher = more stable
Observed property: folding stability dG unfold (kcal/mol)

| Chain sequence | Number |
| --- | --- |
| SAGGSAGGSMELVIPKEEVEKMSEEVVKKIKELAKKANISISETEDSLVIPIKKVSEKVIKELSAGGSAGGS [r12_945_JUSTAS] | -0.325 |
| SAGGSAKITLWIWMPPGNPDKMAEEIADYLAERHGWTVKIKDVQIERDPEDDQVWIPVKIEIQPPPSAGGSA [r15_70_TrROS] | 1.98 |
| SAGGSAGGSAPLSLVIDFPSGPATITFLEDGTARITYTDDDKTETIPVADLLKIPADVDPRSAGGSAGGSAG [r3_256_TrMRF] | 0.0215 |
| SAGGSAGGSAGIRLDSLEEALKYIRKNFPPGRTVEIRVYDGDKPVEITVQVDENGDIKIVSAGGSAGGSAGG [r17_69_TrROS] | 2.91 |
| SAGGSAGGSSIGRTEYIPEENLIVREEPETGLTIITKKPPNGPNIVYTIEPETGEKTVEESLISAGGSAGGS [r12_55_JUSTAS] | 0.445 |
| SAGATFKPGQTVTVVEVKVEVSVSLSRNADGSVSLSVSVRVEVKTTTVTLPEPATVTLPPGVKSLEDLLSAG [r5_770_TrROS_Hall] | 2.37 |
| SAGGSAGGSTALVYKNGVTVTFPVFFPDTAPAVVTLSIPSPEEAAAAVAALRAAGHAVTVEPLASAGGSAGG [r6_872_JUSTAS] | 0.96 |
| SAGGSAGGSAGGVEIPPDKPVAIEVTSPEGPTATLIFDPKDGTVTVIEGGKPVEVPAEDFSAGGSAGGSAGG [r7_937_TrMRF] | 0.0909 |
| SAGGSMKPSKVTEVTHPDGTRFTVTEYPEVPLLTLTIERPETGTTTTVKTKSREEAEKVLAELVASSAGGSA [r2_70_JUSTAS] | 0.696 |
| SAGWRQILDMARNMLENGHMFRIEWTGPGGKPQEFRIPLDDIETLLDNWPDPDDIRSVDIEVYPPGEPISAG [r5_957_TrROS] | 1.72 |
| SAGGSTTITVPEEELEKKTGIPLGTPPEEVARKLDPVAKVTVTAVSSEKGPNGEPKRTVTFEVTPPQLSAGG [r13_723_JUSTAS] | -0.236 |
| SAGGSAKITIHMAPDGMFQIEIKTGGKERTYHVDMPLEQIKDELEDEGLEIKDIEITPFPPDPEDFSAGGSA [r15_576_TrROS] | -1.13 |
| SAGGPKKRKWVTFTIDIYIPTPPGQSIEDEARKLAENLGIEITDVEVEPHPNGMVKIDVTVTIWIPYSAGGS [r8_292_TrROS] | 2.84 |
| SAGNIKIEDIEPNDDYYTLVIKAPENGRTIMIQYNPNNNRIPIMIFPPGGVRTIPIPMNDIEDFLKEILSAG [r5_769_TrROS] | 0.79 |

###

Experiment: folding stability dG unfold (combined trypsin and chymotrypsin); higher = more stable

| Chain sequence | folding stability dG unfold / kcal/mol |
| --- | --- |
| SAGGSAGGMSLEEAVEEAAAAVSPDETAEVVLTVEVSEPLTFPEPPDRLVTRPRTVRVRVRAPASAGGSAGG [r6_543_JUSTAS] | 0.319 |
| SAGGSAGGSAGKIEIYPNDNQYYIKITVPRRNPNNGKWERQERTIPMPPDQAKELLKNGISAGGSAGGSAGG [r11_389_TrROS] | -0.17 |
| SAGGMVIVFPAPKDISPDELRELIEAEVGPLAEELGLTEASIPIAKVEELPEGSRRVVAVIELRFDGSAGGS [r8_184_TrMRF] | 0.718 |
| SAGGSAGSMSPEEVAERIRQEALARDPNWTVEVTPLPGPRPVLRLEIYRVDPNSDSVTPVSTLVVGSAGGSA [r15_682_JUSTAS] | 0.77 |

###

The entries below are paired with their reported folding stability dG unfold.
Assay: folding stability dG unfold (combined trypsin and chymotrypsin); higher = more stable
Observed property: folding stability dG unfold

| Chain sequence | Result |
| --- | --- |
| SAGGSAGGSAKKKKYKVKIKVINENGEIYEIDEIYFDEKTKKIYIKIKNKDGEEKVFEIELDSAGGSAGGSA [r18_370_TrROS_Hall] | 3.25 kcal/mol |
| SAGGSAGGSAGGSMPENLVTITTETTVVKSPLANPVNESPVWEVEVISSPVTVVPPSLLSAGGSAGGSAGGS [r4_417_JUSTAS] | 0.812 kcal/mol |
| SAAPADNPVLVATLTVTVTRPVSFTSPDGSTGTVPETETRTLVLVADAGNDPEALERALELARRLAETVSAG [r14_830_TrMRF] | 3.51 kcal/mol |
| SAGGSAGGSDPNNEPVYIMMKFEIEIKVERDPENGKPKAEDPITITFIIRIPPNGNLEIGIMISAGGSAGGS [r12_438_TrROS] | 4.11 kcal/mol |
| SAGGALDAIKNIAEKFGFPEIEDIDIDPDNGWLSFRFRGPEPVYIKIPWKPDKNGNLPVNIEVYPMDDSAGG [r13_410_TrROS] | 1.65 kcal/mol |
| SAGGMKKVRLTLVFESEEEALEALRKALEEAGVEVKVVRVERLPDGRVVVTVEIEVSDEVLEALKAASAGGS [r8_357_TrROS_Hall] | 3.91 kcal/mol |
| SAGGSAGGSAGGSDNKAILGDVPIKFYDKNGKPVITAKIGYFPDGRVVIYFPDGSKIEASAGGSAGGSAGGS [r10_972_TrMRF] | 1.25 kcal/mol |
| SMTLEEALANPEKLAEELAPPPTPAVDEEIDIVDPLTNTTRPARATVLLEPGRRVIVLPEDGAEYPVDPESA [r9_548_JUSTAS] | < -1 kcal/mol |
| SAGGSASPAVSSEEEVEALVEELRKKGYEVLSVERTEIPGEDVTDYTIPIRDPSNGKLSTLTLTAGSAGGSA [r15_123_JUSTAS] | 0.585 kcal/mol |
| SAGGSAGGGSMSVSYDPSTGNTITTTTTRSPTPLTTTTTTTTFPDGSTSTSTTTTAAPPPAPTTSAGGSAGG [r6_955_JUSTAS] | 0.761 kcal/mol |
| SAGGSAGGSAGGSIEINIMFELPNGLIFRISTTIEPNPDGNLKLDIDIEVIPIKPGQPISAGGSAGGSAGGS [r10_241_TrROS] | 3.96 kcal/mol |
| SAGGSAGGSKAKIEVLEVFPDYIVYKIETENPVIAVIVPLPNGKVKIFVFNPNGEPIAEFELGSAGGSAGGS [r12_1061_TrMRF] | 3.4 kcal/mol |
| SAGGSAGGSMETRTFDSEEELRASVSVPSSLSVTFERRPGRWEVRIEPPLSPEEIAAQRARLLSAGGSAGGS [r12_274_JUSTAS] | -0.553 kcal/mol |
| SAGGSAGGSAGGMPLNFSTVETEELPELGATVTTSTAPGYILTETRTPEGVEVQRYPALLSAGGSAGGSAGG [r7_280_JUSTAS] | 0.108 kcal/mol |
| SAGGSAGGSAGGPIEEILASLPPNATVKVSRVVKLTTPDGSLSSIEVEEVITVKKPEKALSAGGSAGGSAGG [r11_347_JUSTAS] | 0.287 kcal/mol |
| SGYLDAPVKDIKVEKKPIPTSGKVTYTFEAETEDGKPVRVEYNPVTGKIVFGLPPGFKIKPGKPAEVVVGSA [r9_509_TrMRF] | 0.718 kcal/mol |
| SAGGGSTVTTFDPSTGKTTVSIGTDPATGERTVTIVLKNGTPVTVPGPFPSVEEAEAAAAAAAAAAASAGGS [r16_319_JUSTAS] | 0.818 kcal/mol |
| SMLPLLPPRRLLIEVVFPLPEDATPEQLELAERAAEALADVLEALGFKDVRVLVEPTDPGDVLILAEVEASA [r9_865_TrMRF] | 1.82 kcal/mol |
| SAGGSAGGKITPEMEKLKKEIADAIKKAFPNKDLKIEVIKIEKTKDGSVIIDIKIGDKIIRIKASAGGSAGG [r6_494_TrMRF] | 2.16 kcal/mol |
| SSVTLLVPVEVTLPTPEGKGPSVTRFVPVPVPEEELRERLIEELREELKKKGEPDVTEEELKDPEVLEELSA [r9_263_JUSTAS] | -0.0887 kcal/mol |
| SAGGSAGGSAGIKIPPGQKLSIEENPDGNMEIKFPDPGQKFTIPPNAPIEVDPNNWIYIKSAGGSAGGSAGG [r17_49_TrROS] | 0.181 kcal/mol |
| SMKVERERRTIERTLPDGRKVKVEIDLFRPEDGKPWALIKITVTDENGVPTEREILAPAELAEKVIEELFSA [r9_189_TrMRF] | 2.08 kcal/mol |
| SAGPDKPLKIESIGGKFNPDNGVISIKLKVEDPGDGKTYDYTMQFPVRDPDNGKPYMFTFPMRIKVPDSAGG [r19_129_TrROS] | 0.607 kcal/mol |
| SAGGSAGGSAGGWIVRIEHGGKERMFQFDSPEEIKDQIRPMFPNGKKVKVEVMPPDDLKSAGGSAGGSAGGS [r10_1167_TrROS] | -0.483 kcal/mol |
| SAGGSAGGSAGGMELELTFATPEQAVEYAERFERLGYEVEVEYYPETGLVRVRVRLYPEESAGGSAGGSAGG [r7_623_TrMRF] | 3.76 kcal/mol |
| SAGGSAGGSAPIVRLEFGPVIPLPDMSPDELKEKTAELVPEEYREKIKIVSVLDPDNPKEISAGGSAGGSAG [r3_340_TrMRF] | < -1 kcal/mol |
| SAGGSAGGSAGGSFKIKDIEVNPDALKKGNFIQIRIENGWVIHINPNGEIEVVELPPDASAGGSAGGSAGGS [r4_373_TrROS] | 1.25 kcal/mol |
